Biological target: Neutrophil elastase (Homo sapiens)
Sequence (P08246 whole entry): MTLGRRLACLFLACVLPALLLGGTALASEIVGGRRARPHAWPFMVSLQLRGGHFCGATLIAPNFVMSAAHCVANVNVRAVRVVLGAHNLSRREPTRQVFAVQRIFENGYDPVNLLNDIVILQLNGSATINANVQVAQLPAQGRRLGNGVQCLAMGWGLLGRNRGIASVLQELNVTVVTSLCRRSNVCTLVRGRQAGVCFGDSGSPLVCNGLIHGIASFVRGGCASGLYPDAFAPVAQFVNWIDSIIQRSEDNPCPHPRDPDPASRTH
Assay: Inhibition of human leukocyte elastase
PROPERTY_NAME: pKi
One number for each entry, as −log10 of the molar value.

> print(dat)
                             molecule  property.name  value.reported
1              Cc1nc2cccc(C)c2c(=O)o1            pKi            6.00
2           Cc1nc2cc3ccccc3cc2c(=O)o1            pKi            5.14
3     Cc1cccc2nc(NCC(C)(C)C)oc(=O)c12            pKi            6.62
4  COc1cc2nc(SCc3ccccc3)oc(=O)c2cc1OC            pKi            5.67

The following molecules each have a reported value; give each one's pKi.
1. CCOc1nc2cccc(CC)c2c(=O)o1
2. COc1cccc2nc(C)oc(=O)c12
3. CCOc1nc2cc(N(C)C)ccc2c(=O)o1

Solution:
[10.37, 4.84, 8.31]

Provide reported pKi for each item, in the same order as listed.
1. CCCCCNc1nc2cccc(C)c2c(=O)o1
2. CCSc1nc2cc3ccccc3cc2c(=O)o1
3. COC(=O)[C@@H](CC(C)C)NC(=O)[C@@H](CC(C)C)Nc1nc2cc(C)cc(C)c2c(=O)o1
4. CCc1cc(N(C)C)cc2nc(NC(C)C)oc(=O)c12
5. Cc1cccc2c(=O)oc(NC(C)C)nc12
6. CCOC(=O)C(Cc1ccccc1)Nc1nc2ccccc2c(=O)o1 (stereo not drawn)

Solution:
[5.47, 7.14, 6.99, 6.96, 6.23, 5.92]

* * *

Would you mind telling me the reported Log kOH- of each entry?
Test: Alkaline hydrolysis rate of the compound
Assay type: ADME
One number for each entry.

Below, each entry is followed by its recorded Log kOH- result.
> print(dat)
                      given.smiles  value.reported
1  COc1cccc2nc(Nc3ccccc3)oc(=O)c12            0.41
2     CCSc1nc2ccc(N(C)C)cc2c(=O)o1            1.76

Could you tell me Log kOH- for each of these compounds? They are listed below.
1. CCSc1nc2ccc(NC(C)=O)cc2c(=O)o1
2. COC(=O)[C@H](Cc1ccc(O)cc1)Nc1nc2ccccc2c(=O)o1
3. CCSc1nc2c(C)cccc2c(=O)o1
4. O=c1oc(N2CCOCC2)nc2ccccc12
5. O=c1oc(/C=C/c2ccccc2)nc2ccccc12
6. CCc1cc(N(C)C)cc2nc(NC(C)C)oc(=O)c12
7. CC(C)Nc1nc2cc(N(C)C)ccc2c(=O)o1

Solution:
[2.24, 1.28, 2.01, 1.5, 1.57, -1.88, -0.74]

Give Log kOH- for each listed item.
1. Cc1cc(N(C)C)cc2nc(NC(C)C)oc(=O)c12
2. Nc1cccc(CNc2nc3ccccc3c(=O)o2)c1
3. Cc1cccc2c(=O)oc(NC(C)C)nc12

Solution:
1: -1.61; 2: 1.18; 3: 0.69

Provide the reported Log kOH- of each entry below, same order.
1. Cc1cc(C)c2c(=O)oc(NC(C)C)nc2c1
2. Cc1nc2c(C)cccc2c(=O)o1

Solution:
-0.23
1.18

Give Log kOH- for each listed item.
1. CC(C)Nc1nc2ccccc2c(=O)o1
2. CCOc1nc2ccccc2c(=O)o1
3. O=c1oc(N2CCCC2)nc2ccccc12
4. CC(C)CN(CC(C)C)c1nc2ccccc2c(=O)o1
5. Cc1nc2cccc(C)c2c(=O)o1

Solution:
1: 1.21; 2: 1.91; 3: 0.97; 4: 0.68; 5: 0.85

I have 4 compounds here; please give me Log kOH- for each one.
1. CSc1nc2cccc(C)c2c(=O)o1
2. CCSc1nc2ccc(C)cc2c(=O)o1
3. CCc1cccc2nc(N)oc(=O)c12
4. CCCNC(=O)Nc1ccc2c(=O)oc(NC(C)C)nc2c1

Solution:
[1.9, 1.95, -0.08, 0.39]

Below are some compounds; for each one, tell me its Log kOH-.
1. CCOC(=O)CCCNc1nc2ccccc2c(=O)o1
2. CCOc1nc2cccc(CBr)c2c(=O)o1

Solution:
1: 1.21; 2: 1.93

Can you give me Log kOH- for all of these, one by one?
1. CC[C@H](C)[C@H](Nc1nc2ccccc2c(=O)o1)C(=O)OC
2. Cc1nc2cc3ccccc3cc2c(=O)o1
3. COc1cc(C)c2c(=O)oc(NC(C)C)nc2c1
4. CCCCN(C(C)=O)c1nc2ccccc2c(=O)o1

Solution:
1. 1.32
2. 2.19
3. -0.42
4. 2.48

Batch lookup, Log kOH- per entry.
1. CC(=O)Nc1ccc2c(=O)oc(NC(C)C)nc2c1
2. CCCCNc1nc2cc(N)ccc2c(=O)o1
3. Cc1ccc2nc(C)oc(=O)c2c1
4. CCCCN(CCCC)c1nc2ccccc2c(=O)o1

Solution:
[0.92, -0.44, 1.36, -0.57]
